Molecular target: T1, canine NGF tagged at the C-terminus with the Flag tag (canine, UniProt A0A8I3PYI3 122-241)
T1 construct: mature; Expressed with baculovirus technology; also called feline NGF (processed form identical)
T1 sequence (A0A8I3PYI3 entry or part of it): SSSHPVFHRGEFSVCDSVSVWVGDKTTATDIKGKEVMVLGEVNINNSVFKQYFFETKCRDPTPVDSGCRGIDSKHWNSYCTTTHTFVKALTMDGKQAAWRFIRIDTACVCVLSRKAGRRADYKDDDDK
Assay: SPR off-rate assay, Fab-SASA on BSA chip
// kon lookup, one value per entry
The response must be a number in M⁻¹ s⁻¹ with no trailing unit.

Worked examples follow.
{"Binder": "AHF17593 (Fab, V domains shown, not shown: small tags and cut ends, Fab-SASA, combinatorial library) VH: DVQLVESGGDLVKPGGSLRLTCVASGLSLTSSSMVWVRQAPGKGLQWVSTIYSNRGTYYTDSVKGRFTISKDNAENTLYLQMNNLKTEDTATYYCAQIYYYDADYLHWYFDFWGQGALVTVSS VL: EIQMTQSPTSLSASVGDRVTITCRASEGIANNLSWYQQTPGKAPKLLIYATSVLHSGVPSRFSGSGSGTDFTLTISSLQPEDFATYYCQQGYKWPLTFGGGTKLEITR", "kon (M⁻¹ s⁻¹)": 163000}
{"Binder": "AHF17606 (Fab, V domains shown, not shown: small tags and cut ends) VH: DVQLVESGGDLVKPGGSLRLTCVASGLSLTSSSMVWVRQAPGKGLQWVSTIYSNRGTYYTDSVKGRFTISKDNAENTLYLQMNNLKTEDTATYYCASIYYYDADYLHWYFDFWGQGALVTVSS VL: EIQMTQSPTSLSASVGDRVTITCRASEGIANNLSWYQQTPGKAPKLLIYATSNLHSGVPSRFSGSGSGTDFTLTISSLQPEDFATYYCQQGYKWPLTFGGGTKLEITR", "kon (M⁻¹ s⁻¹)": 187000}

Now examine the next entry.
Task: Query: kon; subject: AHF17597 (Fab, V domains shown, not shown: small tags and cut ends) VH: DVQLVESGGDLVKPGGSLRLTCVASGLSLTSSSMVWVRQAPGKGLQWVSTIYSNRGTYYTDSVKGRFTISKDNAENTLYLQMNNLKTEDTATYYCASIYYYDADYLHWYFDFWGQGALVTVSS VL: EIQMTQSPTSLSASVGDRVTITCRASEGIQNNLSWYQQTPGKAPKLLIYATSILHSGVPSRFSGSGSGTDFTLTISSLQPEDFATYYCQQGYKWPLTFGGGTKLEITR
Result: 199000
